# System: GM5657
# METHOD: MTT-based proliferation assay, GM5657
# Type: cell-based, human
# TEST PARAMETERS: 48 h, Mean of three runs, tested range 0.05–100 μM
Measured IC50 by item

| COMPOUND | IC50 |
| --- | --- |
| C=CCOC(=O)c1cn(C2CC2)c2c(OC)c(N3C[C@@H]4CCCN[C@@H]4C3)c(F)cc2c1=O [C‐moxi] | > 100 µM |

Ask: Bench note: what IC50 did N.N.[Cl][Pt][Cl] [Cisplatin, cisplatin] show?
Result: 18.8 µM

Ask: // next record COc1c(N2C[C@@H]3CCCN[C@@H]3C2)c(F)cc2c(=O)c(C(=O)O)cn(C3CC3)c12 [Moxi, moxifloxacin]
Result: > 100 µM

* * *

# Test system: E. coli K12 (BW25113)
# METHOD: catalyst-prodrug co-addition growth assay (24 h) with siderophore controls
# TEST PARAMETERS: without C‐moxi, MHII + 200 μM bpy, 2 % O2, 24 h
ENDPOINT LABEL: effect on growth relative to the no addition control, substance alone

| COMPOUND | SYSTEM TESTED | MEASURED |
| --- | --- | --- |
| O=C(O)c1cccc(O)c1O [DHB, 2,3‐dihydroxybenzoic acid] | E. coli K12 (BW25113) | improve growth |
| O=C(O)CC(O)(CC(=O)O)C(=O)O [citrate] | E. coli K12 (BW25113) | improve growth |
| O=C(NCCCC[C@H](NC(=O)c1cccc(O)c1O)C(=O)O)c1cccc(O)c1O | E. coli K12 (BW25113) | improve growth |

* * *

# System: GM5657
# METHOD: MTT-based proliferation assay, GM5657
# Assay type: cell-based, human
# TEST PARAMETERS: 48 h, Run 2
Measured IC50 by item

Here's what some known entries look like.
| MOLECULE | IC50 |
| --- | --- |
| COc1c(N2C[C@@H]3CCCN[C@@H]3C2)c(F)cc2c(=O)c(C(=O)O)cn(C3CC3)c12 | > 100 µM |
| C=CCOC(=O)c1cn(C2CC2)c2c(OC)c(N3C[C@@H]4CCCN[C@@H]4C3)c(F)cc2c1=O | > 100 µM |

# next molecule below
Ask: Bench note: what IC50 did N.N.[Cl][Pt][Cl] [Cisplatin, cisplatin] show?
Result: 18 µM
